assay: folding stability dG unfold from chymotrypsin proteolysis; higher = more stable
Binary call on folding stability dG unfold: 1 (yes) from 3 kcal/mol upward, 0 (no) beneath that.

# input folding stability dG unfold >= 3 kcal/mol for SAGGSAMVKTADGKEVKVEKVIPLEEMSLEELKALAEKNNKPILIVDKKTKKVIVLTKEELEKLLKSAGGSA [r15_904_TrROS_Hall] ?
# output 0 (no)

# input Could you verify whether the entry SAGGATRIRVLATNASGEKVELDIPQAIADAIAEALKQGKPIPPGPASVIAAFATSNGYDFEIVDISSAGGS [r8_159_TrMRF] shows folding stability dG unfold of no less than 3 kcal/mol?
# output 1 (yes)

# input Hi, just wondering whether SFIRKDPDGTYVIMGRMPPNMPIEEFLENLPGFKIKDVEYQPDPENGYWYFTLVITPRGKVKIDWVPMGDSA [r9_238_TrROS] shows folding stability dG unfold of 3 kcal/mol or higher.
# output 0 (no)

# input Hi, just wondering whether SAGGPYYEWEIKLPDNKTISITMRRNPENGRPQHTVTIHDPEKGKPVKEHPFDSPEEAEELIEEGLLSAGGS [r8_450_TrROS] shows folding stability dG unfold of 3 kcal/mol or higher.
# output 0 (no)

# input Check if folding stability dG unfold >= 3 kcal/mol (inclusive). Item: SAEKIYYKVKVKVEIEKDGKPDIELEIEFIVSPEIPPEKVKEFIEKFLKSKGYKIKKIEIETEPIPSLESAG [r14_979_TrMRF]
# output 1 (yes)

# input Is folding stability dG unfold at least 3 kcal/mol? Consider SAGGSITTEKSLPETNLTLKTTYEGDTETVEIYHHPESDTPVLLAKETVTFSPDGSVSRKSTVVKIESAGGS [r8_69_JUSTAS]
# output 0 (no)

# input Evaluate SAGMIEITVEVPAEDMTEEELKELAEELARALREAGLPEDVKIVDVRVERLPDGTVRVTIKIEVKPPPSAGG [r19_87_TrROS_Hall] : folding stability dG unfold at minimum 3 kcal/mol?
# output 1 (yes)

From: the supplement of paper PMC12764529
